Assay: viability loss in pontine glioma line – cell-based, JHH-DIPG-1, MIPE4.0, CellTiter-Glo, qHTS, dose response (AID 1347062);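 as to AC50: cells exposed to compound for two days before readout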
Settings: JHH-DIPG-1 viability, CellTiter-Glo ATP luminescence
Inconclusive results are not listed. Calls of active or inactive are those of the source. The limit is not given here; nearly all actives have AC50 up to about 27 µM.
// one of T (active), F (inactive), no free text

# example entries with known answers
> print(dat)
                                   compound  cat
1  Clc1ccc2c(N3CCN(CCCN4CCN(c5ccnc6cc(Cl)ccc56)CC4)CC3)ccnc2c1    F
2  c1cc(CN2CCCNCCNCCCNCC2)ccc1CN1CCCNCCNCCCNCC1    F
3  C[C@@]1(c2cc(-c3cncnc3)c(F)cc2F)CCSC(N)=N1    T
4  CC1(C)OC2CC3C4CC(F)C5=CC(=O)C=CC5(C)C4C(O)CC3(C)[C@]2(C(=O)CO)O1 (some centres undefined)    F
5  COCCNCCCn1c(C(=O)CF)c(-c2ccc(C)cc2)c2c(N)ncnc21    F

Challenge: Each compound tested received a call. Report the one for Cc1cn([C@@H]2C[C@@H](O)[C@H](CO)O2)c(=O)[nH]c1=O .
Response given: F

Challenge: Each compound tested received a call. Report the one for CN(C)C(N)=NC(=N)N .
Response given: F

Challenge: Each compound tested received a call. Report the one for COc1nc(-c2ccc3c(c2)OCO3)n(-c2ccc(NC(=O)CSc3ccccc3)cc2)n1 .
Response given: F

Challenge: Each compound tested received a call. Report the one for CN(c1ncccc1CNc1nc(Nc2ccc3c(c2)CC(=O)N3)ncc1C(F)(F)F)S(C)(=O)=O .
Response given: T

Challenge: Each compound tested received a call. Report the one for c1cc(OCCN2CCCCC2)cc(-c2n[nH]c3ccc(-c4ncn[nH]4)cc23)c1 .
Response given: F
